Values compiled from patent US9453031B2.

# test system: CYP 3A4 (Homo sapiens (Human), UniProt P08684)
# Sequence (P08684 whole entry): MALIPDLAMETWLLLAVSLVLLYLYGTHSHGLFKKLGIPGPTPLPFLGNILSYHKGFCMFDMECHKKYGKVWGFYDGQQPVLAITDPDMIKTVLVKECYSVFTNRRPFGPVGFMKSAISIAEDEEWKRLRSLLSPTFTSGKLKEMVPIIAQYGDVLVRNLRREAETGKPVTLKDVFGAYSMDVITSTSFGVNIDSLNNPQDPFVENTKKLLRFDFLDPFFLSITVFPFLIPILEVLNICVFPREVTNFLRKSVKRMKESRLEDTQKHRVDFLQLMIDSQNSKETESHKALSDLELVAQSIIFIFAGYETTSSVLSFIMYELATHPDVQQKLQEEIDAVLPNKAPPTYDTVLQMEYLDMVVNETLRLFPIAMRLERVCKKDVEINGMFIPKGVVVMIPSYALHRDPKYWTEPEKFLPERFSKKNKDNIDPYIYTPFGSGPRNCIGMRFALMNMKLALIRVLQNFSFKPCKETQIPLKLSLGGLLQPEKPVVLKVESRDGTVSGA
# assay info: CYP inhibition assay (P450-Glo)
# condition set: read-out: P450-3A4 IC50; recombinant CYP
quantity measured: IC50 (µM)
Numbers only; they are read as µM.

Need IC50, item CNc1nc2ccccc2n1-c1nc2c(c(C(C)(C)S(C)(=O)=O)n1)OC[C@@H]1COCCN21 39

* * *

# test system: PI3K (p110α/p85α) (Homo sapiens (Human), UniProt P42336)
# Sequence (P42336 whole entry): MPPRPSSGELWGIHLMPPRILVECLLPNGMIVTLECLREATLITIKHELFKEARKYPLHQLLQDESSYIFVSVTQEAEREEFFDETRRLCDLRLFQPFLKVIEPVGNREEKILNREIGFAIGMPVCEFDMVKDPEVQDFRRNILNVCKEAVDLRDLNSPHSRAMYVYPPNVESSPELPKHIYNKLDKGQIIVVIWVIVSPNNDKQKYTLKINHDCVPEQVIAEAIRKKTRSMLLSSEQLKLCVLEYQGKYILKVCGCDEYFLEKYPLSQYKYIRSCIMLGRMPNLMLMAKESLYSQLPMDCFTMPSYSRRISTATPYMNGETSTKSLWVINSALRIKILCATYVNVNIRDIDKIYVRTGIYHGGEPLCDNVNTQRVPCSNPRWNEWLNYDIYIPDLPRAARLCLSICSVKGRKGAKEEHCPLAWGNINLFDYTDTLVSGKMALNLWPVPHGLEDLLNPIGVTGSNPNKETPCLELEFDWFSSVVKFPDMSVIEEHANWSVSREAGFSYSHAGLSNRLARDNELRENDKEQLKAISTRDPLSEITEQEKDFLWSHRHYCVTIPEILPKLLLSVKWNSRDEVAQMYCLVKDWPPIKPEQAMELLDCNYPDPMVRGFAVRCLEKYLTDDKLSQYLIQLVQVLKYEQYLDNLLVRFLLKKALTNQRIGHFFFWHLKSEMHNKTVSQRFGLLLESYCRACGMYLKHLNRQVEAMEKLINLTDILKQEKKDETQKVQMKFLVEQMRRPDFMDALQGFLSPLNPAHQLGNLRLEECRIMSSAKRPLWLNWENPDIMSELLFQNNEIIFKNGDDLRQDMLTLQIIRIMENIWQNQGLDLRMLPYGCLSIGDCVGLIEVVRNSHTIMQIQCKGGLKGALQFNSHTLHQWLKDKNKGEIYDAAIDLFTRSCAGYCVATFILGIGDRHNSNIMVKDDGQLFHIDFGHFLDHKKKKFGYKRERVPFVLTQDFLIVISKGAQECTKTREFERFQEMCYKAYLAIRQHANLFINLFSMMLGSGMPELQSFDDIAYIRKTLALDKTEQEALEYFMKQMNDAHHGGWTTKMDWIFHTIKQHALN
# Sequence (P27986 whole entry partner): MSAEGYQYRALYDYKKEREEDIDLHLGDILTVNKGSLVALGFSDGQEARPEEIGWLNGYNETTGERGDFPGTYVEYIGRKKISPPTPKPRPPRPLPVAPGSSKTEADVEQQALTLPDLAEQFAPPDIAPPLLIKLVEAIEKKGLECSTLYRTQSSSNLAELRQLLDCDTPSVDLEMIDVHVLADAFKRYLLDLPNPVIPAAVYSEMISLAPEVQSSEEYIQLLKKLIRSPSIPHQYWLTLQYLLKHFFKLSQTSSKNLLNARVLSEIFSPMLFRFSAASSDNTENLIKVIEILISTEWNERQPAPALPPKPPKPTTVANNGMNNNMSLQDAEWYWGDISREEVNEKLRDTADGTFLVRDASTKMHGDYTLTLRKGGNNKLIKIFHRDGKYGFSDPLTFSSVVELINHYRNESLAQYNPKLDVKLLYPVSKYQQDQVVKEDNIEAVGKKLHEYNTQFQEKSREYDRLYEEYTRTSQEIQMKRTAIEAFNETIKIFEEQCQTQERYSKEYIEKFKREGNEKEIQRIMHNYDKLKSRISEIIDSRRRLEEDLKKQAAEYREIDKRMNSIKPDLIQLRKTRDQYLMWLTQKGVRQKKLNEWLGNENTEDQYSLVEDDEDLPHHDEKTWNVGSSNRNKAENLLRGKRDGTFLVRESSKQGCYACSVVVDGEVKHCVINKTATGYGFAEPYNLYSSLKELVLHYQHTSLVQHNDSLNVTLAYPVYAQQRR
# assay info: PI3K alpha activity assay (ADP Hunter Plus)
# condition set: 50 μM ATP, 30 μM PIP2; read-out: PI3Kα IC50
quantity measured: IC50 (µM)
// note: answer is a bare numeric in µM

Past entries and their recorded results:
{"molecule": "CS(=O)(=O)C1(c2nc(-c3cc(F)cc4[nH]ccc34)nc3c2OC[C@@H]2COCCN32)CC1 [Example 74]", "measurement units": "µM", "reported value": 2.24}
{"molecule": "CC(C)(c1nc(-c2c(F)ccc3[nH]ccc23)nc2c1OC[C@H]1COCCN21)S(C)(=O)=O [Example 26]", "measurement units": "µM", "reported value": 2.7}
{"molecule": "CNc1nc2cc(F)ccc2n1-c1nc2c(c(C3(S(C)(=O)=O)CCC3)n1)OC[C@@H]1COCCN21 [Example 96]", "measurement units": "µM", "reported value": 50}
{"molecule": "CC(C)(c1nc(-c2cccc3[nH]ccc23)nc2c1OCC[C@@H]1COCCN21)S(C)(=O)=O [Example 25]", "measurement units": "µM", "reported value": 23.4}
{"molecule": "CS(=O)(=O)C1(c2nc(-c3ccnc4[nH]ccc34)nc3c2OC[C@@H]2COCCN32)CCOCC1 [Example 30]", "measurement units": "µM", "reported value": 2.5}

Query molecule follows.
Request the reported IC50 associated with CS(=O)(=O)C1(c2nc(-c3ccc(F)c4[nH]ccc34)nc3c2OC[C@@H]2COCCN32)CC1 [Example 110] 50

* * *

Below, each entry is listed with its recorded pIC50.
# test system: PI3K (p110α/p85α) (Homo sapiens (Human), UniProt P42336)
# assay info: PI3K alpha activity assay (ADP Hunter Plus)
# condition set: 50 μM ATP, 30 μM PIP2; read-out: PI3Kα IC50
# Procedure: The kinase activity was measured by using the commercial ADP Hunter™ Plus assay available from DiscoveRx (#33-016), which is a homogeneous assay to measure the accumulation of ADP, a universal product of kinase activity. […] The reaction was carried out for 1 hour at 25° C. […] Fluorescence counts were read in a Victor instrument (Perkin Elmer) with the recommended settings (544 and 580 nm as excitation and emission wavelengths, respectively).
Value format note: pIC50 is -log10 of concentration (mol/L); just state the number.

Recorded pIC50 of CC(C)(c1nc(-c2cccc3[nH]ccc23)nc2c1OC[C@@H]1COCCN21)S(=O)(=O)C1CC1 , please. 5.49

I would be grateful if you could share the reported pIC50 for CC(C)(c1nc(-c2ccc(F)c3[nH]ccc23)nc2c1OC[C@@H]1COCCN21)S(C)(=O)=O . 4.30

Dear colleague, I am looking for the recorded pIC50 of the following molecule: CNc1nc2cc(F)ccc2n1-c1nc2c(c(C(C)(C)S(C)(=O)=O)n1)OC[C@@H]1COCCN21 5.25

* * *

# test system: ATR (Homo sapiens (Human), UniProt Q13535)
# Sequence (Q13535 whole entry): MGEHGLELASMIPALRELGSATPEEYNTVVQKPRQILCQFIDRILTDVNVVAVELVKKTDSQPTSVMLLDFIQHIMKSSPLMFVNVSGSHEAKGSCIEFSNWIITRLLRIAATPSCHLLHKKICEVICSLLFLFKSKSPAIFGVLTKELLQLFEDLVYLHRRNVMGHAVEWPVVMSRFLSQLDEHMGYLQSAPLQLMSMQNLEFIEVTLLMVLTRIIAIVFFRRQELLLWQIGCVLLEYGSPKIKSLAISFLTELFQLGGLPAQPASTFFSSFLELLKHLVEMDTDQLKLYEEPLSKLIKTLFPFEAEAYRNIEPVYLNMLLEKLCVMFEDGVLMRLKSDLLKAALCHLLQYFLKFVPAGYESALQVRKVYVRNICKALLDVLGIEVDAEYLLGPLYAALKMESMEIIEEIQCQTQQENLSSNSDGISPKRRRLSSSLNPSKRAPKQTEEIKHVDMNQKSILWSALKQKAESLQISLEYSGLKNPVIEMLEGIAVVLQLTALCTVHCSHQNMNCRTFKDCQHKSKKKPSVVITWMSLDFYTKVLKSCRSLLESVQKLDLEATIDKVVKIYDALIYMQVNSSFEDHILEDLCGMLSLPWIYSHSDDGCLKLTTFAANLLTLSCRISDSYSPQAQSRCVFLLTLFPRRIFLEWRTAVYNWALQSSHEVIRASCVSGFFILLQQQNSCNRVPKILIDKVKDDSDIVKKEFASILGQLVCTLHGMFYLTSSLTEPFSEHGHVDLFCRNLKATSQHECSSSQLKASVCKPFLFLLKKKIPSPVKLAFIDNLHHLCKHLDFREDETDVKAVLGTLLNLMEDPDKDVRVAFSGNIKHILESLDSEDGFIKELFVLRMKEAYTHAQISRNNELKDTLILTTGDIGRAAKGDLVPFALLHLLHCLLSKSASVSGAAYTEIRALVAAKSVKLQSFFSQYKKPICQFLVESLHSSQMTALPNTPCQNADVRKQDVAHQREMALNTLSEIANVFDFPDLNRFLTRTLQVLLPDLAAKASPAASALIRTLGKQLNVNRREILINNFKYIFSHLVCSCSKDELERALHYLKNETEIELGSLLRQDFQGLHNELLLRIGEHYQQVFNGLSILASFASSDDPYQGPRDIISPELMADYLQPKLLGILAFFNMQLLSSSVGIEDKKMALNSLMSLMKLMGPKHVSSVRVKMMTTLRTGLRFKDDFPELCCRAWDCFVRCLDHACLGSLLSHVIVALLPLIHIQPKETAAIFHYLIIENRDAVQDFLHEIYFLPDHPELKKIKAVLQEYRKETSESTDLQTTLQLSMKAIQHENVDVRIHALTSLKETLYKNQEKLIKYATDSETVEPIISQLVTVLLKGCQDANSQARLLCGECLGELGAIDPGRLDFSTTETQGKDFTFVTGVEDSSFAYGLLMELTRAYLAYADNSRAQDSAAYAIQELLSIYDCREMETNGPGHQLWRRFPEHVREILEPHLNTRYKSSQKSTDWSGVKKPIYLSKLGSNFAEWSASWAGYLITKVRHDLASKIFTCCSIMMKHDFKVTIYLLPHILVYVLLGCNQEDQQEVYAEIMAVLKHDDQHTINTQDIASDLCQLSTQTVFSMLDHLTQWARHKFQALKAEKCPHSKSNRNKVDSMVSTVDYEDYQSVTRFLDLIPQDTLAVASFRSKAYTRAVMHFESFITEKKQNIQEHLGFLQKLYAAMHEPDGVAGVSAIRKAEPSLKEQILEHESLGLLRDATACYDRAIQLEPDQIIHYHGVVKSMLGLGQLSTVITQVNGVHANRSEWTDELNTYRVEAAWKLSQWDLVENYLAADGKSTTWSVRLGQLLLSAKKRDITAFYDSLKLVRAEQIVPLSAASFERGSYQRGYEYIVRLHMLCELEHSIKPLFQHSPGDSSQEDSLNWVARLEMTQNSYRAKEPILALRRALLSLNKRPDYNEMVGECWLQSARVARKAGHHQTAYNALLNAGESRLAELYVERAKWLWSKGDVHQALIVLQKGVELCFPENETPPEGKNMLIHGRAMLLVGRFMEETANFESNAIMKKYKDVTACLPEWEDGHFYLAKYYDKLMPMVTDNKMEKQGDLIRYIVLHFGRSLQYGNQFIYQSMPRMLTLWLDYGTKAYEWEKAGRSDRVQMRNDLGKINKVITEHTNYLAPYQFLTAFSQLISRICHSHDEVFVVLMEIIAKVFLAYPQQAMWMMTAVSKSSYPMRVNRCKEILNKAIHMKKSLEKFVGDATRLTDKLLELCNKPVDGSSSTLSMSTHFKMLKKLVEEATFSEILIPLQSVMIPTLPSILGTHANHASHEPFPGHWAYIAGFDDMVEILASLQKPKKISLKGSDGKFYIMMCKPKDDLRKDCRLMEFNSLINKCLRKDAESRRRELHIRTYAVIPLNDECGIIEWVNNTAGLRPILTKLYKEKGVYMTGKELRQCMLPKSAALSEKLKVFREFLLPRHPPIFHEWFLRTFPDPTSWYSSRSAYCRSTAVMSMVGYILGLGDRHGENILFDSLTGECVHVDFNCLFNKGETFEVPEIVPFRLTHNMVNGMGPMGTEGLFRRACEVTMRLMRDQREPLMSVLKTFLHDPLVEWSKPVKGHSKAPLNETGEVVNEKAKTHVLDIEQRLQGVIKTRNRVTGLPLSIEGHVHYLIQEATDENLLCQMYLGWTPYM
# assay info: Cellular ATR inhibition, western blot of CHK1(S345) phosphorylation in hydroxyurea treated cells
# Format: cell-based
# condition set: HT29 cells, hydroxyurea 2.5 mM
quantity measured: EC50

Check out these entries, answers already filled in.
{"compound": "CS(=O)(=O)C1(c2nc(-c3ccc(F)c4[nH]ccc34)nc3c2OC[C@@H]2COCCN32)CCOCC1", "EC50": "> 1000 nM"}
{"compound": "CS(=O)(=O)C1(c2nc(-c3cccc4[nH]ccc34)nc3c2OC[C@@H]2COCCN32)CCC1", "EC50": "< 100 nM"}
{"compound": "CC(C)(c1nc(-c2ccc(F)c3[nH]ccc23)nc2c1OC[C@@H]1COCCN21)S(C)(=O)=O", "EC50": "> 1000 nM"}
{"compound": "CS(=O)(=O)c1cccc(-c2nc(-c3cccc4[nH]ccc34)nc3c2OCC2COCCN32)c1 (stereo not shown)", "EC50": "100 to 1000 nM"}
{"compound": "CS(=O)(=O)C1(c2nc(-c3cc(F)cc4[nH]ccc34)nc3c2OC[C@@H]2COCCN32)CC1", "EC50": "100 to 1000 nM"}

Look up EC50 for this compound: CS(=O)(=O)Cc1nc(-c2cccc3[nH]ccc23)nc2c1OCC1COCCN21 (stereo not shown) 100 to 1000 nM

Request the reported EC50 associated with Cc1cc2c(-c3nc4c(c(C5(S(C)(=O)=O)CCOCC5)n3)OCC3COCCN43)cccc2[nH]1 (stereo not shown) 100 to 1000 nM

What value of EC50 has been recorded for this entry: CS(=O)(=O)C1(c2nc(-c3ccc(F)c4[nH]ccc34)nc3c2OC[C@@H]2COCCN32)CC1 > 1000 nM

* * *

Recorded pIC50 by entry
# test system: PI3K (p110α/p85α) (Homo sapiens (Human))
# assay info: PI3K alpha activity assay (ADP Hunter Plus)
# condition set: 50 μM ATP, 30 μM PIP2; read-out: PI3Kα IC50
# Experimental: The kinase activity was measured by using the commercial ADP Hunter™ Plus assay available from DiscoveRx (#33-016), which is a homogeneous assay to measure the accumulation of ADP, a universal product of kinase activity. […] The reaction was carried out for 1 hour at 25° C. […] Fluorescence counts were read in a Victor instrument (Perkin Elmer) with the recommended settings (544 and 580 nm as excitation and emission wavelengths, respectively).
As a rule, pIC50 stands for the negative log10 of the concentration, concentration in M.

{"molecule": "CS(=O)(=O)C1(c2nc(-c3cc(F)cc4[nH]ccc34)nc3c2OC[C@@H]2COCCN32)CCC1", "reported value": 5.27}

I would be grateful if you could share the reported pIC50 for CS(=O)(=O)C1(c2nc(-c3cc(C(F)(F)F)cc4[nH]ccc34)nc3c2OC[C@@H]2COCCN32)CC1 . 4.81

What does the record list as pIC50 for COc1cc(-c2nc3c(c(C(C)(C)O)n2)OC[C@@H]2COCCN32)c2cc[nH]c2c1 ? 6.32

Report pIC50 for CS(=O)(=O)C1(c2nc(-c3cc(C(F)(F)F)cc4[nH]ccc34)nc3c2OC[C@@H]2COCCN32)CCC1 please. 4.71

Value lookup for pIC50; key = CNc1nc2ccc(Cl)cc2n1-c1nc2c(c(C3(S(C)(=O)=O)CC3)n1)OC[C@@H]1COCCN21 4.30

Give the measured pIC50 of CC(C)(O)c1nc(-c2cccc3[nH]ccc23)nc2c1OC[C@@H]1COCCN21 . 5.93

Record request: pIC50 value, item COc1cc(-c2nc3c(c(C4(S(C)(=O)=O)CC4)n2)OC[C@@H]2COCCN32)c2cc[nH]c2c1 5.60

Recorded pIC50 of Cc1cc2c(-c3nc4c(c(C5(S(C)(=O)=O)CCC5)n3)OC[C@@H]3COCCN43)cccc2[nH]1 , please. 5.13

Param item = CS(=O)(=O)C1(c2nc(-c3cccc4[nH]ccc34)nc3c2OCC[C@H]2COCCN32)CCOCC1 ; retrieve measured pIC50. 4.30

Please look up its pIC50: CS(=O)(=O)C1(c2nc(-c3ccc(F)c4[nH]ccc34)nc3c2OC[C@@H]2COCCN32)CCOCC1 4.30

Need pIC50, item CS(=O)(=O)C1(c2nc(-c3cc(C(F)(F)F)cc4[nH]ccc34)nc3c2OC[C@@H]2COCCN32)CCOCC1 4.54

Recorded pIC50 of Cc1cc2c(-c3nc4c(c(C(C)(C)S(C)(=O)=O)n3)OC[C@@H]3COCCN43)cccc2[nH]1 , please. 5.50

Using the record for CNc1nc2ccccc2n1-c1nc2c(c(C(C)(C)S(C)(=O)=O)n1)OCC[C@@H]1COCCN21 , report its pIC50. 4.79

Given CS(=O)(=O)C1(c2nc(-c3cccc4[nH]ccc34)nc3c2OC[C@@H]2COCCN32)CC1 , state its recorded pIC50. 5.35

Would you mind telling me what pIC50 value was observed for CNc1nc2ccc(Cl)cc2n1-c1nc2c(c(C(C)(C)S(C)(=O)=O)n1)OC[C@@H]1COCCN21 ? 4.30

* * *

Item-by-item account of EC50
# test system: ATR (Homo sapiens (Human))
# assay info: Cellular ATR inhibition, western blot of CHK1(S345) phosphorylation in hydroxyurea treated cells
# Format: cell-based
# condition set: HT29 cells, hydroxyurea 2.5 mM

Recorded EC50, per entry:
{"compound": "CS(=O)(=O)C1(c2nc(-c3ccnc4[nH]ccc34)nc3c2OC[C@@H]2COCCN32)CCOCC1 [Example 30]", "quantity measured": "EC50", "reported value": "100 to 1000 nM"}
{"compound": "CCNc1nc2ccccc2n1-c1nc2c(c(C(C)(C)S(C)(=O)=O)n1)OC[C@@H]1COCCN21 [Example 64]", "quantity measured": "EC50", "reported value": "100 to 1000 nM"}
{"compound": "CS(=O)(=O)C1(c2nc(-c3cccc4[nH]ccc34)nc3c2OC[C@@H]2COCCN32)CC1 [Example 6]", "quantity measured": "EC50", "reported value": "100 to 1000 nM"}
{"compound": "CCCNc1nc2ccccc2n1-c1nc2c(c(C(C)(C)S(C)(=O)=O)n1)OC[C@@H]1COCCN21 [Example 65]", "quantity measured": "EC50", "reported value": "< 100 nM"}

Reported EC50 for COc1cc(-c2nc3c(c(C4(S(C)(=O)=O)CCOCC4)n2)OC[C@@H]2COCCN32)c2cc[nH]c2c1 [Example 29] : what is it? < 100 nM
